The measurements presented in this section are drawn from the supplement of paper PMC11246515.

Item-by-item account of total protein half-life in vivo
# measurementProtocol: total protein half-life in vivo (active degradation + dilution); higher = more stable protein
# conditionParameters: E. coli NCM3722 delta-clpP delta-lon delta-hslV; growth: N-lim chemostat; doubling time 6 h
Could you write the number and then its unit?

MNKFEDIRGVAFDLDGTLVDSAPGLAAAVDMALYALELPVAGEERVITWIGNGADVLMERALTWARQERATQRKTMGKPPVDDDIPAEEQVRILRKLFDRYYGEVAEEGTFLFPHVADTLGALQAKGLPLGLVTNKPTPFVAPLLEALDIAKYFSVVIGGDDVQNKKPHPDPLLLVAERMGIAPQQMLFVGDSRNDIQAAKAAGCPSVGLTYGYNYGEAIDLSQPDVIYQSINDLLPALGLPHSENQESKND: 3.53 h

Summary for this sequence, MVAPIPAKRGRKPAVATAPATGQVQSLTRGLKLLEWIAESNGSVALTELAQQAGLPNSTTHRLLTTMQQQGFVRQVGELGHWAIGAHAFMVGSSFLQSRNLLAIVHPILRNLMEESGETVNMAVLDQSDHEAIIIDQVQCTHLMRMSAPIGGKLPMHASGAGKAFLAQLSEEQVTKLLHRKGLHAYTHATLVSPVHLKEDLAQTRKRGYSFDDEEHALGLRCLAACIFDEHREPFAAISISGPISRITDDRVTEFGAMVIKAAKEVTLAYGGMR : total protein half-life in vivo is 5.87 h

* * *

# measurementProtocol: total protein half-life in vivo (active degradation + dilution); higher = more stable protein
# conditionParameters: wild type E. coli NCM3722; growth: N-lim chemostat; doubling time 6 h
# cutoff 4 h applies to total protein half-life in vivo; >= gives 1 (yes), < gives 0 (no)

Recorded results for 10 sequences are shown here.
MWIGIISLFPEMFRAITDYGVTGRAVKNGLLSIQSWSPRDFTHDRHRTVDDRPYGGGPGMLMMVQPLRDAIHAAKAAAGEGAKVIYLSPQGRKLDQAGVSELATNQKLILVCGRYEGIDERVIQTEIDEEWSIGDYVLSGGELPAMTLIDSVSRFIPGVLGHEASATEDSFAEGLLDCPHYTRPEVLEGMEVPPVLLSGNHAEIRRWRLKQSLGRTWLRRPELLENLALTEEQARLLAEFKTEHAQQQHKHDGMA [P0A873]: 1 (yes)
MPLLDSFTVDHTRMEAPAVRVAKTMNTPHGDAITVFDLRFCVPNKEVMPERGIHTLEHLFAGFMRNHLNGNGVEIIDISPMGCRTGFYMSLIGTPDEQRVADAWKAAMEDVLKVQDQNQIPELNVYQCGTYQMHSLQEAQDIARSILERDVRINSNEELALPKEKLQELHI: 0 (no)
MGFKCGIVGLPNVGKSTLFNALTKAGIEAANFPFCTIEPNTGVVPMPDPRLDQLAEIVKPQRTLPTTMEFVDIAGLVKGASKGEGLGNQFLTNIRETEAIGHVVRCFENDNIIHVSGKVNPADDIEVINTELALADLDTCERAIHRVQKKAKGGDKDAKAELAVLEKCLPQLENAGMLRALDLSAEEKAAIRYLSFLTLKPTMYIANVNEDGFENNPYLDQVREIAAKEGSVVVPVCAAVEADIAELDDEERDEFMQELGLEEPGLNRVIRAGYKLLNLQTYFTAGVKEVRAWTIPVGATAPQAAGKIHTDFEKGFIRAQTISFEDFITYKGEQGAKEAGKMRAEGKDYIVKDGDVMNFLFNV [P0ABU2]: 0 (no)
MNFLAHLHLAHLAESSLSGNLLADFVRGNPEESFPPDVVAGIHMHRRIDVLTDNLPEVREAREWFRSETRRVAPITLDVMWDHFLSRHWSQLSPDFPLQEFVCYAREQVMTILPDSPPRFINLNNYLWSEQWLVRYRDMDFIQNVLNGMASRRPRLDALRDSWYDLDAHYDALETRFWQFYPRMMAQASRKAL: 0 (no)
MKGRWVKYLLMGTVVAMLAACSSKPTDRGQQYKDGKFTQPFSLVNQPDAVGAPINAGDFAEQINHIRNSSPRLYGNQSNVYNAVQEWLRAGGDTRNMRQFGIDAWQMEGADNYGNVQFTGYYTPVIQARHTRQGEFQYPIYRMPPKRGRLPSRAEIYAGALSDKYILAYSNSLMDNFIMDVQGSGYIDFGDGSPLNFFSYAGKNGHAYRSIGKVLIDRGEVKKEDMSMQAIRHWGETHSEAEVRELLEQNPSFVFFKPQSFAPVKGASAVPLVGRASVASDRSIIPPGTTLLAEVPLLDNNGKFNGQYELRLMVALDVGGAIKGQHFDIYQGIGPEAGHRAGWYNHYGRVWVLKTAPGAGNVFSG [P0A935]: 0 (no)
MSNLTYLQGYPEQLLSQVRTLINEQRLGDVLAKRYPGTHDYATDKALWQYTQDLKNQFLRNAPPINKVMYDNKIHVLKNALGLHTAVSRVQGGKLKAKVEIRVATVFRNAPEPFLRMIVVHELAHLKEKEHNKAFYQLCCHMEPQYHQLEFDTRLWLTQLSLGQNKI: 0 (no)
MSIKLIAVDMDGTFLSDQKTYNRERFMAQYQQMKAQGIRFVVASGNQYYQLISFFPEIANEIAFVAENGGWVVSEGKDVFNGELSKDAFATVVEHLLTRPEVEIIACGKNSAYTLKKYDDAMKTVAEMYYHRLEYVDNFDNLEDIFFKFGLNLSDELIPQVQKALHEAIGDIMVSVHTGNGSIDLIIPGVHKANGLRQLQKLWGIDDSEVVVFGDGGNDIEMLRQAGFSFAMENAGSAVVAAAKYRAGSNNREGVLDVIDKVLKHEAPFDQ: 0 (no)
MARARGRGRRDLKSEINIVPLLDVLLVLLLIFMATAPIITQSVEVDLPDATESQAVSSNDNPPVIVEVSGIGQYTVVVEKDRLERLPPEQVVAEVSSRFKANPKTVFLIGGAKDVPYDEIIKALNLLHSAGVKSVGLMTQPI [P0ABV6]: 1 (yes)
MAANAFVRARIDEDLKNQAADVLAGMGLTISDLVRITLTKVAREKALPFDLREPNQLTIQSIKNSEAGIDVHKAKDADDLFDKLGI: 0 (no)
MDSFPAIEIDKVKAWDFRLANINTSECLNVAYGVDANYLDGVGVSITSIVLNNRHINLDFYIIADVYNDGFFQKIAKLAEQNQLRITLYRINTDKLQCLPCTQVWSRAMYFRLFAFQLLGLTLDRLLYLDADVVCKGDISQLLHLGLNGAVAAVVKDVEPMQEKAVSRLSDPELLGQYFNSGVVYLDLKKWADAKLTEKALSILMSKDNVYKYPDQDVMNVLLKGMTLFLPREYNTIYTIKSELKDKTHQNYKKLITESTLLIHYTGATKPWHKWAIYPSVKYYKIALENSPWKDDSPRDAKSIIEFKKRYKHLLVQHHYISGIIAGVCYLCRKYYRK: 1 (yes)

**Q:** Reported total protein half-life in vivo reaches at least 4 h for MKKWAVIISAVGLAFAVSGCSSDYVMATKDGRMILTDGKPEIDDDTGLVSYHDQQGNAMQINRDDVSQIIER ?
**A:** 1 (yes)

* * *

# measurementProtocol: total protein half-life in vivo (active degradation + dilution); higher = more stable protein
# conditionParameters: E. coli NCM3722 delta-hslV; growth: N-lim chemostat; doubling time 6 h
The reader will find reported total protein half-life in vivo values listed item by item below.
The figure you give is taken to be in h; do not add the unit.

MLYVIYAQDKADSLEKRLSVRPAHLARLQLLHDEGRLLTAGPMPAVDSNDPGAAGFTGSTVIAEFESLEAAQAWADADPYVAAGVYEHVSVKPFKKVF [P0AB55]: 4.51

The sequence listed as MRLLPLVAAATAAFLVVACSSPTPPRGVTVVNNFDAKRYLGTWYEIARFDHRFERGLEKVTATYSLRDDGGLNVINKGYNPDRGMWQQSEGKAYFTGAPTRAALKVSFFGPFYGGYNVIALDREYRHALVCGPDRDYLWILSRTPTISDEVKQEMLAVATREGFDVSKFIWVQQPGS [P0A901] shows total protein half-life in vivo equal to 5.56

GET /value?item= MHVKYLAGIVGAALLMAGCSSSNELSAAGQSVRIVDEQPGAECQLIGTATGKQSNWLSGQHGEEGGSMRGAANDLRNQAAAMGGNVIYGISSPSQGMLSSFVPTDSQIIGQVYKCPN [P0AF70] &field=total protein half-life in vivo returns 6.86

// field: total protein half-life in vivo; key: MRWQGRRESDNVEDRRNSSGGPSMGGPGFRLPSGKGGLILLIVVLVAGYYGVDLTGLMTGQPVSQQQSTRSISPNEDEAAKFTSVILATTEDTWGQQFEKMGKTYQQPKLVMYRGMTRTGCGAGQSIMGPFYCPADGTVYIDLSFYDDMKDKLGADGDFAQGYVIAHEVGHHVQKLLGIEPKVRQLQQNATQAEVNRLSVRMELQADCFAGVWGHSMQQQGVLETGDLEEALNAAQAIGDDRLQQQSQGRVVPDSFTHGTSQQRYSWFKRGFDSGDPAQCNTFGKSI ; value = 5.36
